# Tested on: Sporothrix brasiliensis CBS 133006
# assay: growth inhibition relative to untreated control; higher = more growth inhibition (more antifungal activity), active = 80 or more; extreme values may be limits of the assay
# experimental-setup: 1 µM; 48 h
growth inhibition below 10% gives N; growth inhibition at or above it gives Y.

[Q] growth inhibition >= 10% for CC(Oc1cccc(Cl)c1)C(=O)Nc1ccc2oc(-c3ccncc3)nc2c1 (stereo unspecified) ?
[A] Y

[Q] growth inhibition >= 10% for `Cc1cc(NCC(C)C)c2[nH]nc(-c3ccccc3)c2n1` ?
[A] N

[Q] growth inhibition >= 10% for `COc1ccc(C2=NN(C3CCCCCC3)C(=O)[C@@H]3CC=CC[C@H]23)cc1OCCCCOc1ccc(-c2nnn[nH]2)cc1` ?
[A] N

[Q] growth inhibition >= 10% for `N#CCN(CCCCN1CCN(c2ccc(F)cc2)CC1)C(=O)OCc1ccccc1` ?
[A] Y

[Q] growth inhibition >= 10% for `COc1ccc(-c2nnc3ccc(-c4cccc(C(C)C)c4)cn23)cc1OC` ?
[A] Y

[Q] growth inhibition >= 10% for `COc1ccc(Nc2ccccc2NC(=O)c2ccc(O)nc2)cc1` ?
[A] Y

* * *

# Tested on: Sporothrix schenckii ATCC 32286
# assay: growth inhibition relative to untreated control; higher = more growth inhibition (more antifungal activity), active = 80 or more; extreme values may be limits of the assay
# experimental-setup: 1 µM; 48 h
Kindly state growth inhibition for each of the entries shown.

Sporothrix schenckii ATCC 32286 growth inhibition of `O=C(NC1CC1)c1ccc(N2CCC(Cc3ccccc3)CC2)nc1` is 19.8% (inactive)

Sporothrix schenckii ATCC 32286 growth inhibition of `Nc1ncnc2c1ncn2[C@@H]1O[C@H](COS(=O)(=O)NC(=O)c2ccccc2O)[C@@H](O)[C@H]1O` is 9% (inactive)

Sporothrix schenckii ATCC 32286 growth inhibition of `CCOC(=O)c1noc(N)c1-c1ccccc1` is 0% (inactive)

Sporothrix schenckii ATCC 32286 growth inhibition of `CC(C)(C)C(=O)N(CCCCCCN1C[C@H](O)[C@@H](O)[C@H](O)[C@H]1CO)C1CCCCCC1` is 8% (inactive)

Sporothrix schenckii ATCC 32286 growth inhibition of `CC(C)/N=c1\cc2n(-c3ccc(Cl)cc3)c3ccccc3nc-2cc1Nc1ccc(Cl)cc1` is 12.2% (inactive)

* * *

# System: Sporothrix brasiliensis CBS 133006
# assay: growth inhibition relative to untreated control; higher = more growth inhibition (more antifungal activity), active = 80 or more; extreme values may be limits of the assay
# experimental-setup: 1 µM; 48 h
Each record's class is read off its growth inhibition using these ranges: lo = under 6%, med = from 6% up to 20%, hi = 20% and over

[Q] Which growth inhibition band matches `CCOc1ccc2cc(-c3nn(CC4CCN(C)CC4)c4ncnc(N)c34)ccc2c1` ?
[A] lo

[Q] Which growth inhibition band matches `Cc1ncc(-c2ccnc(Nc3ccc(S(C)(=O)=O)cc3)n2)n1C(C)C` ?
[A] hi

[Q] Which growth inhibition band matches NCCC(O)C(=O)N[C@@H]1C[C@H](N)[C@@H](OC2O[C@H](CN)[C@@H](O)[C@H](O)[C@H]2O)[C@H](O)C1OC1O[C@H](CO)[C@@H](O)[C@H](N)[C@H]1O (stereo partly specified) ?
[A] med

[Q] Which growth inhibition band matches CS(=O)(=O)c1ccc(C(=O)N(CC2CCCO2)c2nc3ccccc3s2)cc1[N+](=O)[O-] (stereo unspecified) ?
[A] hi

[Q] Which growth inhibition band matches `c1ccc(-c2cc(N3CCCCC3)c3ccccc3n2)nc1` ?
[A] hi

[Q] Which growth inhibition band matches `O=C(NCCc1ccccc1)c1cc(-c2cccnc2)cnc1NCC1CC1` ?
[A] lo

[Q] Which growth inhibition band matches `CC(=O)NC[C@H]1CN(c2ccc(N3CCSCC3)c(F)c2)C(=O)O1` ?
[A] lo

[Q] Which growth inhibition band matches `Cc1cc(NC(=O)c2ccc(S(=O)(=O)N(Cc3ccccc3)C(C)C)cc2)no1` ?
[A] med

[Q] Which growth inhibition band matches `COc1cccc(CC(=O)N2CCC(n3c(C)nc4ccc(F)cc43)CC2)c1` ?
[A] med

[Q] Which growth inhibition band matches `Cc1cc(O)nc(-n2nc(C)cc2C)n1` ?
[A] lo

[Q] Which growth inhibition band matches `CC(C)(C)OC(=O)N1CCN(c2cc(-c3ccc(Oc4ccccc4)cc3)n[nH]2)CC1` ?
[A] med

[Q] Which growth inhibition band matches `CCCCN(CCCC)c1c(C#N)cc(S(=O)(=O)Nc2ccccc2)cc1C#N` ?
[A] med

[Q] Which growth inhibition band matches `COc1cccc(-n2nnnc2S(=O)(=O)Cc2ccccc2)c1` ?
[A] med

[Q] Which growth inhibition band matches `Nc1ccc(C(=O)Nc2ccc(-c3nc4ccccc4o3)cc2)cc1` ?
[A] lo

[Q] Which growth inhibition band matches `CCc1c(C)nc(-n2nc(C)cc2NC(=O)c2ccccc2SC)[nH]c1=O` ?
[A] hi

[Q] Which growth inhibition band matches `COc1ccc(-c2cnc3ccc(N4CCCC4)nn23)cc1OC` ?
[A] hi

[Q] Which growth inhibition band matches `CCOC(=O)c1cc(-c2csc(Nc3c(C)cc(C)cc3C)n2)on1` ?
[A] med

[Q] Which growth inhibition band matches `CN(C)c1cc(NC(=O)Nc2ccccc2)c2ccccc2n1` ?
[A] lo

[Q] Which growth inhibition band matches O=C(C(Cc1c[nH]c2ccccc12)NS(=O)(=O)c1ccc(Cl)cc1)N1CCCCC1 (stereo unspecified) ?
[A] lo

[Q] Which growth inhibition band matches `O=C(NC1CC1)c1ccc(N2CCC(Cc3ccccc3)CC2)nc1` ?
[A] med

[Q] Which growth inhibition band matches Cc1nn(C)cc1C(C)Nc1nncc(-c2ccc(C(F)(F)F)cc2)n1 (stereo unspecified) ?
[A] med
